study target: HLA-A*24:02
experiment: IEDB peptide-MHC binding, purified MHC/competitive/fluorescence; bounds were set here for any values at or beyond the usual limits of such assays
experimental setup: source organism: Plasmodium falciparum
measurement kind: IC50 (nM)
Please state the figure in nM; there is no need to write the unit.

Use these answered entries as a reference point.
> print(dat)
   macromolecule.sequence  unit.text  result.value
1              EYPLHQEHTY         nM           999
2               RYNLYDKKL         nM           172
3               IFHHLIYVL         nM          9590

For the next question, use this sequence.
Input: IC50 of AYVSCYRVSF on HLA-A*24:02?
Output: 56.9

Data origin, for the record: the Immune Epitope Database (IEDB)
